# ASSAYED TARGET: Serine/threonine-protein kinase 17A (Homo sapiens, UniProt Q9UEE5)
# TEST: Inhibition of human N-terminal His-tagged/ TEV cleavage fused DRAK1 (39 to 369 residues) expressed in Escherichia coli using KKLNRTLSFAEPG peptide as substrate in presence of [gamma-33P]ATP by radiometric based scintillation proximity assay
Form field: IC50 (one value per entry).
QUANTITY MEASURED: IC50 (nM)

* CC(NC(=O)c1ccc2cc1OCCOCCNc1ccn3ncc-2c3n1)c1ccccc1 (centres undefined) | 31
* CC(C)(C)NC(=O)c1ccc2cc1OCCOCCNc1ccn3ncc-2c3n1 | 49
* O=C(NCc1ccccc1)c1ccc2cc1OCCOCCNc1ccn3ncc-2c3n1 | 155
* C[C@H](NC(=O)c1ccc2cc1OCCOCCNc1ccn3ncc-2c3n1)c1ccncc1 | 15

====

# Tested on: LN-229
# TEST: Antiproliferative activity against human LN-229 cells assessed as reduction in cell viability after 1 to 7 days by resazurin dye based fluorimetric analysis
# Format: functional
The entries below come with measured EC50 values attached.
QUANTITY MEASURED: EC50 (µM)

• CC(C)(C)NC(=O)c1ccc2cc1OCCOCCNc1ccn3ncc-2c3n1 = 9.2
• C[C@H](NC(=O)c1ccc2cc1OCCOCCNc1ccn3ncc-2c3n1)c1ccncc1 = 2.2

====

Catalogue of ΔTm values
# TEST: Binding affinity to wild type full length human CK2alpha2 (1 to 350 residues) expressed in mammalian expression system assessed as change in melting temperature by SYPRO orange dye based DSF assay
QUANTITY MEASURED: ΔTm (°C)

- CC(NC(=O)c1ccc2cc1OCCOCCNc1ccn3ncc-2c3n1)c1ccccc1 (configuration not stated): 1.9
- O=C(O)c1ccc2cc1OCCOCCNc1ccn3ncc-2c3n1: 11.3
- O=C(c1ccc2cc1OCCOCCNc1ccn3ncc-2c3n1)N1CCOCC1: 2.5
- CC(C)(C)NC(=O)c1ccc2cc1OCCOCCNc1ccn3ncc-2c3n1: 2.3
- O=C(NCc1ccccc1)c1ccc2cc1OCCOCCNc1ccn3ncc-2c3n1: 4.9
- CN1CCN(C(=O)c2ccc3cc2OCCOCCNc2ccn4ncc-3c4n2)CC1: 0.9
- C[C@H](NC(=O)c1ccc2cc1OCCOCCNc1ccn3ncc-2c3n1)c1ccncc1: 0.1

====

# TEST: Cytotoxicity against human MRC9 cells assessed as increase in total apoptotic cells incubated for 36 hrs by Annexin V staining based method
# Type: toxicity, cell-based
EC50 at 36 h: recorded values
QUANTITY MEASURED: EC50 at 36 h

• CC(C)(C)NC(=O)c1ccc2cc1OCCOCCNc1ccn3ncc-2c3n1 = > 10 µM
• C[C@H](NC(=O)c1ccc2cc1OCCOCCNc1ccn3ncc-2c3n1)c1ccncc1 = > 10 µM

====

# ASSAYED TARGET: Casein kinase II subunit alpha (Homo sapiens, UniProt P68400)
# TEST: Inhibition of CK2alpha1(unknown origin) transfected in HEK293T cells using NanoBRET NanoGlo as substrate incubated for 2 hrs by NanoBRET assay
# Assay type: cell-based
# Sequence (P68400 whole entry, the tested form may be a part): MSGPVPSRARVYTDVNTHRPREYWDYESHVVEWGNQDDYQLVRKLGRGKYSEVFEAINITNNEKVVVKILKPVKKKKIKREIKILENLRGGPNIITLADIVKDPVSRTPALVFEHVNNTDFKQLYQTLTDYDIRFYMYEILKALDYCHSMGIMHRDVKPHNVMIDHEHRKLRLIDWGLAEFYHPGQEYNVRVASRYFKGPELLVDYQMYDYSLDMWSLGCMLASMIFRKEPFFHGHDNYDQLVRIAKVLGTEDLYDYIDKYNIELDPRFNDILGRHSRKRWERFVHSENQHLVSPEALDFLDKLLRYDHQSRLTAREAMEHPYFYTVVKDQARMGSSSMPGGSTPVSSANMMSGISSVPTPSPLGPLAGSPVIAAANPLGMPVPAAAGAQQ
pIC50: −log10 of the molar value.
QUANTITY MEASURED: pIC50

• CC(C)(C)NC(=O)c1ccc2cc1OCCOCCNc1ccn3ncc-2c3n1 = 4.47

====

# ASSAYED TARGET: Cyclin-G-associated kinase (Homo sapiens)
# Sequence (O14976 whole entry): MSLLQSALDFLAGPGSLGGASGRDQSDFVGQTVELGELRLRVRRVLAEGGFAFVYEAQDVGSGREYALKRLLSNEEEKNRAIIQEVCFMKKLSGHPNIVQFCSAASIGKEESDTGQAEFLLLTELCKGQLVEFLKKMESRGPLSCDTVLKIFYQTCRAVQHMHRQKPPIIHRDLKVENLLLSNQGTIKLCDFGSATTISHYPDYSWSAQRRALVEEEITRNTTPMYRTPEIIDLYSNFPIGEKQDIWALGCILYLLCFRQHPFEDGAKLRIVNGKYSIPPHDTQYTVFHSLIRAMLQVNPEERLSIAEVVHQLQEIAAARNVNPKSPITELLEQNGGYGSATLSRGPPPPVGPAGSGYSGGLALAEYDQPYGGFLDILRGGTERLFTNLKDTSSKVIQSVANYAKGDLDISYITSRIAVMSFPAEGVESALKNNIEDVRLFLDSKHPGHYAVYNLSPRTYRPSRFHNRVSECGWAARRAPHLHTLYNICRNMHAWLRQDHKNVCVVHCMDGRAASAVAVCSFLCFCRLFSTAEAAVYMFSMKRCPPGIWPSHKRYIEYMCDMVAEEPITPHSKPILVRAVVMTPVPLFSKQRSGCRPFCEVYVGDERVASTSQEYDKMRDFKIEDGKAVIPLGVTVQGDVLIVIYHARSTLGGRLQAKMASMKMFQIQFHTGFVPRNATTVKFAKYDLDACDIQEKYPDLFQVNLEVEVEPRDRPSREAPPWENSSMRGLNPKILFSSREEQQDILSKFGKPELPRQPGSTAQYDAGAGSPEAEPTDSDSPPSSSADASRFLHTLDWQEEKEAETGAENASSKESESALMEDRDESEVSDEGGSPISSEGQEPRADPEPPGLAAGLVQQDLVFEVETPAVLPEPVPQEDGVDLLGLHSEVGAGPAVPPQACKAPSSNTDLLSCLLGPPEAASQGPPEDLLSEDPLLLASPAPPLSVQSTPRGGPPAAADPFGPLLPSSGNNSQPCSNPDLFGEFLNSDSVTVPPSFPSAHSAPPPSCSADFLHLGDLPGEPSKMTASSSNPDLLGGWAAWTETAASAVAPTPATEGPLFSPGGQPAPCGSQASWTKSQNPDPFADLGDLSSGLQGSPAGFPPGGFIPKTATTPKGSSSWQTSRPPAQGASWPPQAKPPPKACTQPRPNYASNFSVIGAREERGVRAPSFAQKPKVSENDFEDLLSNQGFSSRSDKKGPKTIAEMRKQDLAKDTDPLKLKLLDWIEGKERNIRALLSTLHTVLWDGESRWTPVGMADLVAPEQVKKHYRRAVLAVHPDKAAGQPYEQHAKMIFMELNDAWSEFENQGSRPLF
# TEST: Inhibition of GAK (unknown origin) transfected in HEK293T cells using NanoBRET NanoGlo as substrate incubated for 2 hrs by NanoBRET assay
QUANTITY MEASURED: IC50

- CC(C)(C)NC(=O)c1ccc2cc1OCCOCCNc1ccn3ncc-2c3n1: 24 µM

====

# ASSAYED TARGET: Serine/threonine-protein kinase 17A (Homo sapiens)
# Sequence (whole entry): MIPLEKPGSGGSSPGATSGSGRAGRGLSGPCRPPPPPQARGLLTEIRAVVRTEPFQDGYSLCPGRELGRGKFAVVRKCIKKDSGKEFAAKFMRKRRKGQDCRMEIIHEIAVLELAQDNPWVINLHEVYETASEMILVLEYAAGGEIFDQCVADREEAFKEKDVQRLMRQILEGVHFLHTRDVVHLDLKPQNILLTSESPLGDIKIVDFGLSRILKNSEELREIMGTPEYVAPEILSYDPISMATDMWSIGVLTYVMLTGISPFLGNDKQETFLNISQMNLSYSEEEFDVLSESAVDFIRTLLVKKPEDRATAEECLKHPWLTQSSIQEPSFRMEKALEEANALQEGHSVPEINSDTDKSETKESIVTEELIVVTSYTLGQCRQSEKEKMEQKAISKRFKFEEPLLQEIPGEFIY
# TEST: Binding affinity to human N-terminal His-tagged/ TEV cleavage fused DRAK1 (39 to 369 residues) expressed in Escherichia coli assessed as change in melting temperature at 10 uM by SYPRO orange dye based DSF assay
Where ΔTm equals or exceeds 10 °C, the correct label is condition met; where it does not, the label is condition not met.

* O=C(O)c1ccc2cc1OCCOCCNc1ccn3ncc-2c3n1 | condition not met
* O=C(c1ccc2cc1OCCOCCNc1ccn3ncc-2c3n1)N1CCOCC1 | condition not met
* CC(C)(C)NC(=O)c1ccc2cc1OCCOCCNc1ccn3ncc-2c3n1 | condition met
* O=C(NCc1ccccc1)c1ccc2cc1OCCOCCNc1ccn3ncc-2c3n1 | condition not met
* CC(NC(=O)c1ccc2cc1OCCOCCNc1ccn3ncc-2c3n1)c1ccccc1 (stereo unspecified) | condition met
* C[C@H](NC(=O)c1ccc2cc1OCCOCCNc1ccn3ncc-2c3n1)c1ccncc1 | condition met

====

# ASSAYED TARGET: Casein kinase II subunit alpha (Homo sapiens)
# TEST: Inhibition of human CK2alpha1 using RRRDDDSDDD peptide as substrate in presence of [gamma-33P]ATP by radiometric based scintillation proximity assay
QUANTITY MEASURED: IC50 (nM)

- CC(C)(C)NC(=O)c1ccc2cc1OCCOCCNc1ccn3ncc-2c3n1: 950

====

Each entry below carries its reported ΔTm.
# ASSAYED TARGET: Casein kinase II subunit alpha (Homo sapiens, UniProt P68400)
# TEST: Binding affinity to wild type full length human CK2alpha1 (1 to 391 residues) expressed in mammalian expression system assessed as change in melting temperature at 10 uM by SYPRO orange dye based DSF assay
# Sequence (P68400 whole entry, looked up, the tested form may be a part): as the sequence (P68400 whole entry, the tested form may be a part) above
QUANTITY MEASURED: ΔTm (°C)

* CN1CCN(C(=O)c2ccc3cc2OCCOCCNc2ccn4ncc-3c4n2)CC1 | 0.3
* O=C(c1ccc2cc1OCCOCCNc1ccn3ncc-2c3n1)N1CCOCC1 | 1.1
* CC(NC(=O)c1ccc2cc1OCCOCCNc1ccn3ncc-2c3n1)c1ccccc1 (configuration not stated) | -0.9
* C[C@H](NC(=O)c1ccc2cc1OCCOCCNc1ccn3ncc-2c3n1)c1ccncc1 | 1.2
* O=C(O)c1ccc2cc1OCCOCCNc1ccn3ncc-2c3n1 | 10.6
* CC(C)(C)NC(=O)c1ccc2cc1OCCOCCNc1ccn3ncc-2c3n1 | 0.8
* O=C(NCc1ccccc1)c1ccc2cc1OCCOCCNc1ccn3ncc-2c3n1 | 1.7
